Biological target: Adenosine deaminase (Bos taurus, UniProt P56658)
Sequence (P56658 whole entry): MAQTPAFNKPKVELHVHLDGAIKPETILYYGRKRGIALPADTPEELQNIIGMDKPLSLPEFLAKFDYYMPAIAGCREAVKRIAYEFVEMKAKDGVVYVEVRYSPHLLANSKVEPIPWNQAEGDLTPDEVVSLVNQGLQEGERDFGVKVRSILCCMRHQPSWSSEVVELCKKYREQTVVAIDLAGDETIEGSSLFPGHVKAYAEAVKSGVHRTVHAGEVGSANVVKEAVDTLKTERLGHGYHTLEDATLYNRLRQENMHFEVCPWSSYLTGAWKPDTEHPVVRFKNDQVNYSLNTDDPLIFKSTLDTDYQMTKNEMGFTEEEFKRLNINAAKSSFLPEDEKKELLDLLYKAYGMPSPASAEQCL
Endpoint label: Ki

Consider the following illustrative entries.
CNc1cc(Cl)nc2c1ncn2[C@H]1C[C@H](O)[C@@H](CO)O1 | 4.2 µM
OCC1CCC(n2cnc3c(NC4CC4)cc(Cl)nc32)O1 (configuration not stated) | > 100 µM
OC[C@H]1O[C@@H](n2cnc3c(NC4CCCCC4)ccnc32)C[C@@H]1O | > 100 µM
OCC1CCC(n2cnc3c(NC4CCC4)ccnc32)O1 (configuration not stated) | 92 µM
OC[C@H]1O[C@@H](n2cnc3c(NC4CC4)cc(Cl)nc32)[C@H](O)[C@@H]1O | > 100 µM

-- ask Which measured Ki value corresponds to "OC[C@H]1O[C@@H](n2cnc3c(NC4CCC4)cc(Cl)nc32)C[C@@H]1O" ?
-- reply > 100 µM

-- ask // repeat for OCC1CCC(n2cnc3c(NC4CCCCCCC4)cc(Cl)nc32)O1 (configuration not stated) and report
-- reply > 100 µM
